A collection of sequences and their measured binding signal
Target: OsSMF1 (Oryza sativa, UniProt Q6ZLB0 1-436)
Sequence: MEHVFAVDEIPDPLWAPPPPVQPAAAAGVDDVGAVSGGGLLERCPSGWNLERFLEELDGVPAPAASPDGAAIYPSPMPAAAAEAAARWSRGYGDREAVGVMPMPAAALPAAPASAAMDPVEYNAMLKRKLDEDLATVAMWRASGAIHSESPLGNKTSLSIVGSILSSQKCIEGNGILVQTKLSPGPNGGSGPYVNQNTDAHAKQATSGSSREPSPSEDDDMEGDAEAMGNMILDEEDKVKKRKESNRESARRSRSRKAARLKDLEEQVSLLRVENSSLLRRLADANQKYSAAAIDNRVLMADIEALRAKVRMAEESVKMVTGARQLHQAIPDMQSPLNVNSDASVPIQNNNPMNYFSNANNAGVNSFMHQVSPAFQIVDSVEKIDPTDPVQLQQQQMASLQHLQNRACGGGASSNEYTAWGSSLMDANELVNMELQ
Test: protein-binding microarray (RPBM); PBS, 2% BSA, 51.3 ng/ul salmon testes DNA, 50 uM zinc acetate, 200 nM TF, 25 C, 1 h; high values mean tight binding
Conditions: protein: recombinant; tags: N-terminal polyhistidine and DsRed monomer fusion (pET32a); chain copies: 2; label: CyDye5-dUTP incorporated in the synthesized complementary strand; 3' TTTTT single-stranded linker to array surface; dsDNA, one strand shown
In all, about 39,000 sequences were measured (“fluorescence intensity (a.u.)”: median about 4,300, highest 2% from about 39,000 on). The full list was thinned out, with the highest values kept by preference.

What value of binding signal has been recorded for this entry: AAACCATTCGCCCGATTTGATCCACATCACCACTTTGGTTCGGAGTCACCTAGTGCAG
10400 fluorescence intensity (a.u.)

Form field: reported binding signal of AGTTGATAGGAGTAGCTTGAAGAAGCAGAGACAGCTAGATCGGAGTCACCTAGTGCAG
37600 fluorescence intensity (a.u.)

Report binding signal for GAGAGGACGAAGGGAAAGAGAGAGATGGTGATGACGTGGCCGGAGTCACCTAGTGCAG please.
31600 fluorescence intensity (a.u.)

Reported binding signal, sequence GGGAAGAGAGAAGAGACGAAACAGGGAGGAGGGGATTGGGCGGAGTCACCTAGTGCAG : ____
3320 fluorescence intensity (a.u.)

State the recorded binding signal for this entry: GACAGTAGCAGCAGTGGACACGTCGATTTCGCAATTCGTGCGGAGTCACCTAGTGCAG
5760 fluorescence intensity (a.u.)
